# Tested on: SK-MEL-5
# assayExplanation: NCI tumour cell line growth inhibition, 48 h
Activity calls are given as the source filed them. Rule as the data show it: active = GI50 up to about 1.1 µM and inactive = higher.
Valid outcomes are listed here; reply with one: class 1 (active), class 0 (inactive)

Some entries whose results are on file:
molecule	classification
O=C(O)/C(O)=C1/C=C(c2ccccc2)c2ccccc21	class 0
CCOC(=O)c1c(Cl)nc2ccccc2c1N=[N+]=[N-]	class 0
O=C(Cc1cc(=O)oc2cc(O)ccc12)N/N=C/c1ccc(N(CCCl)CCCl)cc1	class 0
O=C(NN1C(=O)C=CC1=O)c1ccccc1Nc1ccccc1C(=O)NN1C(=O)C=CC1=O	class 0
Nc1cccc2cc(S(=O)(=O)Nc3ccc(C(=O)O)cc3)ccc12	class 0

Returns: the outcome recorded for "Cc1ccc2c(c1C)C(=O)/C(=C/c1cccc(C)c1C(=O)O)C2" in this assay.
class 0

Short answer needed: outcome of this test for CCCC(=O)CC(C)C(=O)C(=O)NC12CC3CC(CC(C3)C1)C2 (stereo not given) ?
class 0

Write down the call the test reported for this molecule. Item: "CC1=C(C(=O)N(C)c2ccc(Cl)c(C(=O)OC(C)C)c2)SCCO1"
class 0

What outcome does the record of this test show for "COc1cc(CNc2nc3ccc(C(F)(F)F)cc3nc2-c2ccccc2)cc(OC)c1OC" ?
class 0

Any idea what this test logged for "Cc1cc(C)c2c(O)cc(-c3cccc4ccccc34)nc2n1" ?
class 1

---

List of GI50 values.
# Test system: BT-549
# assayExplanation: NCI tumour cell line growth inhibition, 48 h
Active and inactive are the calls of the source. Cut-off read from the data, not from the text of the source: active = GI50 up to about 1.1 µM and inactive = higher.

Here are 5 compounds together with their reported answers.
compound	studyTarget	GI50
CC1CSC(=S)N1C(=O)N1C(=S)SCC1C (stereo unspecified)	BT-549	24.7 µM (inactive)
CC(C)=C[C@H]1C[C@H](C)[C@H]2CC[C@H](C)c3c2c1c(C)c1ncoc31	BT-549	21.1 µM (inactive)
C=C(C)[C@H]1C2=CC(C(=O)OC)=C(C[C@H](C(=C)C)[C@@H](O)[C@@H](O)C3=C[C@H]1OC3=O)O2	BT-549	> 100 µM (inactive)
O=C1CCCCC/C1=C\c1cccc([N+](=O)[O-])c1	BT-549	24.5 µM (inactive)
CN1C[C@@H]2CCCN2P1Oc1cccc2cccnc12 (stereo partly specified)	BT-549	> 100 µM (inactive)

Give the value of GI50 reported for the following: "C=C(c1ccccc1)[C@@]1(O)CC[C@@H]1N(CC#N)Cc1ccccc1"
19.9 µM (inactive)

---

# Test system: BT-549
# assayExplanation: NCI tumour cell line growth inhibition, 48 h
The source made the active and inactive calls. Cut-off read from the data, not from the text of the source: active = GI50 up to about 1.1 µM and inactive = higher.
Parameter call: string, one of 1.0 (active), 0.0 (inactive)

Known results for compounds:
compound	studyTarget	classification
C=CC(Br)(CBr)CCC(Br)C(C)C (centres undefined)	BT-549	0.0
CC12c3c4ccc(C=O)c3Oc3ccc(C=O)c(c31)Oc1ccc(C=O)c(c12)O4	BT-549	0.0
N#Cc1[nH]c(=O)n(-c2cccc3ccccc23)c1N	BT-549	0.0
CNC(=O)OCC1=C(COC(=O)NC)C(C)N(c2ccc(OC)cc2)C1 (centres undefined)	BT-549	0.0
CSc1nc(Nc2cccc(C(F)(F)F)c2)c2c(N)nn(C)c2n1	BT-549	0.0
S=C(NCc1ccccc1)N/N=C/c1ccccn1	BT-549	0.0

Would you mind telling me which call this test gave "CCC(=O)OCc1ccc2oc(=O)c(C(=O)Oc3cncc(Cl)c3)cc2c1" ?
0.0

Any idea what this test logged for "Cc1cc2c(cc1Cl)SSc1cc(Cl)c(C)cc1S(=O)(=O)Nc1nc(N)nn1C(O)n1nc(N)nc1NS2(=O)=O" ?
0.0

Given CC(=O)OC1CCC2(C)C(=CC(C3C=C4CC(OC(C)=O)CCC4(C)C4=C3C3CC5OC6(CCC(C)CO6)C(C)C5C3(C)CC4)C3=C2CCC2(C)C3CC3OC4(CCC(C)CO4)C(C)C32)C1 (centres undefined) , state the outcome it received in this test.
0.0

In this assay, the call recorded for "CN(C)c1ccc(/C=N/NC2=N/C(=C\c3ccco3)C(=O)N2)cc1" was what?
0.0
